measurement notes: Microsomal stability in rat liver microsomes assessed as intrinsic clearance
Type: ADME, Microsome
condition summary: read-out: CLH
assay metric: CLint scaled (mL/min/kg)
Note: unit mL/min/kg is implicit; provide only the numeric part.

// query // CLint scaled lookup, key: CC(C)[C@]12O[C@H]1[C@@H]1O[C@]13[C@]1(O[C@H]1C[C@H]1C4=C(CC[C@@]13C)C(=O)OC4)[C@@H]2OC(=O)COC(=O)CN1CCOCC1.Cl
// result 288

###

measurement notes: Cmax in Sprague-Dawley rat at 1.0 mg/kg, po administered via oral gavage and measured upto 24 hrs by LC-MS/MS analysis
Assay type: ADME, organism-based
Design: dose 1 mg/kg, time < 24 hrs, route po
condition summary: in vivo
assay metric: Cmax (ng/mL)
Note: unit ng/mL is implicit; provide only the numeric part.

// query // Cmax lookup, key: CC(C)[C@]12O[C@H]1[C@@H]1O[C@]13[C@]1(O[C@H]1C[C@H]1C4=C(CC[C@@]13C)C(=O)OC4)[C@@H]2O [TRIPTOLIDE]
// result 15.9

###

remaining at 4 h, 2 mg/ml values, listed per item
measurement notes: Chemical stability of the compound in water assessed as parent compound remaining at 2 mg/ml measured after 4 hrs by HPLC analysis
Format: physicochemical
condition summary: read-out: Stability
Note: unit % is implicit; provide only the numeric part.

Reference set, count: 2
CC(C)[C@]12O[C@H]1[C@@H]1O[C@]13[C@]1(O[C@H]1C[C@H]1C4=C(CC[C@@]13C)C(=O)OC4)[C@@H]2OC(=O)COC(=O)CN1CCOCC1.Cl = 99.1
CC(C)[C@]12O[C@H]1[C@@H]1O[C@]13[C@]1(O[C@H]1C[C@H]1C4=C(CC[C@@]13C)C(=O)OC4)[C@@H]2OC(=O)CCCOC(=O)CN1CCOCC1.Cl = 94.8

We next turn to a different molecule, shown below.
// query // remaining at 4 h, 2 mg/ml lookup, key: CC(C)[C@]12O[C@H]1[C@@H]1O[C@]13[C@]1(O[C@H]1C[C@H]1C4=C(CC[C@@]13C)C(=O)OC4)[C@@H]2OC(=O)COC(=O)CN1CCN(C)CC1.Cl
// result 96.7

###

measurement notes: AUC (0 to t) in Sprague-Dawley rat at 1.0 mg/kg, po administered via oral gavage and measured upto 24 hrs by LC-MS/MS analysis
Assay type: ADME, organism-based
Parameters: dose 1 mg/kg, time < 24 hrs, route po
condition summary: in vivo
assay metric: AUC(0-t) at 24 h (ng·h/mL)
Note: unit ng·h/mL is implicit; provide only the numeric part.

// query // AUC(0-t) at 24 h lookup, key: CC(C)[C@]12O[C@H]1[C@@H]1O[C@]13[C@]1(O[C@H]1C[C@H]1C4=C(CC[C@@]13C)C(=O)OC4)[C@@H]2O [TRIPTOLIDE]
// result 31.9

###

IC50 values, listed per item
System: MV4-11
measurement notes: Antiproliferative activity against human MV4-11 cells assessed as cell growth inhibition measured after 48 hrs by CCK8 assay
Type: functional, cell-based
condition summary: MV4-11, 48 h
Provide the measurement as a number trailed by its unit.

CC(C)[C@]12O[C@H]1[C@@H]1O[C@]13[C@]1(O[C@H]1C[C@H]1C4=C(CC[C@@]13C)C(=O)OC4)[C@@H]2O [TRIPTOLIDE] = 12 nM

We next turn to a different compound, shown below.
// query // IC50 lookup, key: CC(C)[C@]12O[C@H]1[C@@H]1O[C@]13[C@]1(O[C@H]1C[C@H]1C4=C(CC[C@@]13C)C(=O)OC4)[C@@H]2OC(=O)COC(=O)CN1CCOCC1.Cl
// result 46 nM
